Listing: stoichiometry of binding to GRFT (rounded, as stated in text) of selected compounds
# STUDY TARGET: griffithsin (GRFT) (Griffithsia sp.)
# Sequence (P84801 whole entry): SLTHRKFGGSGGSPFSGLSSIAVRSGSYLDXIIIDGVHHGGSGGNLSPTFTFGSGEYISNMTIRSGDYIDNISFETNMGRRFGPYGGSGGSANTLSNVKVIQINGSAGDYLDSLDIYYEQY
# Type: binding
# ASSAY SETUP: ITC
MEASURED ATTRIBUTE: stoichiometry of binding to GRFT (rounded, as stated in text)

{"columns": ["STRUCTURE SMILES", "EXPERIMENTAL VALUE"],
 "data": [
  ["CC(=O)N[C@@H](CCCCNC(=O)CO[C@H]1O[C@H](CO)[C@@H](O)[C@H](O)[C@@H]1O)C(=O)NCC(=O)N[C@@H](CCCCNC(=O)CO[C@H]1O[C@H](CO)[C@@H](O)[C@H](O)[C@@H]1O)C(=O)NCC(=O)N[C@@H](CCCCNC(=O)CO[C@H]1O[C@H](CO)[C@@H](O)[C@H](O)[C@@H]1O)C(N)=O", 1],
  ["NC(=O)[C@H](CCCCNC(=O)[C@H](CCCCNC(=O)CO[C@H]1O[C@H](CO)[C@@H](O)[C@H](O)[C@@H]1O)NC(=O)CO[C@H]1O[C@H](CO)[C@@H](O)[C@H](O)[C@@H]1O)NC(=O)[C@H](CCCCNC(=O)CO[C@H]1O[C@H](CO)[C@@H](O)[C@H](O)[C@@H]1O)NC(=O)CO[C@H]1O[C@H](CO)[C@@H](O)[C@H](O)[C@@H]1O", 2],
  ["NC(=O)[C@H](CCCCNC(=O)CNC(=O)[C@H](CCCCNC(=O)CO[C@H]1O[C@H](CO)[C@@H](O)[C@H](O)[C@@H]1O)NC(=O)CO[C@H]1O[C@H](CO)[C@@H](O)[C@H](O)[C@@H]1O)NC(=O)CNC(=O)[C@H](CCCCNC(=O)CO[C@H]1O[C@H](CO)[C@@H](O)[C@H](O)[C@@H]1O)NC(=O)CO[C@H]1O[C@H](CO)[C@@H](O)[C@H](O)[C@@H]1O", 1.5],
  ["CC(=O)N[C@@H](CNC(=O)CO[C@H]1O[C@H](CO)[C@@H](O)[C@H](O)[C@@H]1O)C(=O)N[C@@H](CNC(=O)CO[C@H]1O[C@H](CO)[C@@H](O)[C@H](O)[C@@H]1O)C(=O)N[C@@H](CNC(=O)CO[C@H]1O[C@H](CO)[C@@H](O)[C@H](O)[C@@H]1O)C(N)=O", 1.5],
  ["CC(=O)N[C@@H](CCCNC(=O)CO[C@H]1O[C@H](CO)[C@@H](O)[C@H](O)[C@@H]1O)C(=O)N[C@@H](CCCNC(=O)CO[C@H]1O[C@H](CO)[C@@H](O)[C@H](O)[C@@H]1O)C(=O)N[C@@H](CCCNC(=O)CO[C@H]1O[C@H](CO)[C@@H](O)[C@H](O)[C@@H]1O)C(N)=O", 1],
  ["NC(=O)[C@H](CCCCNC(=O)[C@H](CCCCNC(=O)CNC(=O)CO[C@H]1O[C@H](CO)[C@@H](O)[C@H](O)[C@@H]1O)NC(=O)CNC(=O)CO[C@H]1O[C@H](CO)[C@@H](O)[C@H](O)[C@@H]1O)NC(=O)[C@H](CCCCNC(=O)CNC(=O)CO[C@H]1O[C@H](CO)[C@@H](O)[C@H](O)[C@@H]1O)NC(=O)CNC(=O)CO[C@H]1O[C@H](CO)[C@@H](O)[C@H](O)[C@@H]1O", 1]
]}
